The measurements presented in this section are drawn from the kinase profiling compilation of Christmann-Franck et al. (2016).

Target: LIMK1 (human) (UniProt P53667)
Sequence (P53667 whole entry, looked up): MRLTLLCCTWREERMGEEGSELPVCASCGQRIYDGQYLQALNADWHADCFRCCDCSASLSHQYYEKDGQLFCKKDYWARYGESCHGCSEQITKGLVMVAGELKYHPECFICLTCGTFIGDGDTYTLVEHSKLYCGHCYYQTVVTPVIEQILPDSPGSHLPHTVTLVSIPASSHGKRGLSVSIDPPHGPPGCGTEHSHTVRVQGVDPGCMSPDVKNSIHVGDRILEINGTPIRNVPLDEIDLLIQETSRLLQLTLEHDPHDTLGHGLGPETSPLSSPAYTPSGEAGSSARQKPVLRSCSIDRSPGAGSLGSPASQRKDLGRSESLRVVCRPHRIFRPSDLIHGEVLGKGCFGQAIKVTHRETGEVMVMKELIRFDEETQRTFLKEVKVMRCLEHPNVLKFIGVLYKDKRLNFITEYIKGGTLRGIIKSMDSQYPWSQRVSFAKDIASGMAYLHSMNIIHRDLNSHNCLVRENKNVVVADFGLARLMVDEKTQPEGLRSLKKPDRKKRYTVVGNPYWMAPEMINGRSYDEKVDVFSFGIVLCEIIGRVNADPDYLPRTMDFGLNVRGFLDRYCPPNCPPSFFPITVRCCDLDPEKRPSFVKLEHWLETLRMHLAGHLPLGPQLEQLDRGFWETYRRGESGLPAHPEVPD
Experiment: radiometric filter-binding kinase assay, Kinase HotSpot
Conditions: compound 0.5 µM; ATP 10 µM
Attribute measured: residual activity (%)

>  <Test smiles>
N#C/C(=C1/Nc2ccccc2S1)c1ccnc(NCCc2cccnc2)n1

>  <Attribute measured>
residual activity

>  <Readout unit>
%

>  <Recorded result>
90.2

$$$$
>  <Test smiles>
COc1cc2c(N3CCN(C(=O)Nc4ccc(OC(C)C)cc4)CC3)ncnc2cc1OCCCN1CCCCC1

>  <Attribute measured>
residual activity

>  <Readout unit>
%

>  <Recorded result>
88.6

$$$$
>  <Test smiles>
COc1cc2c(Nc3ccc(Br)cc3F)ncnc2cc1OCC1CCN(C)CC1

>  <Attribute measured>
residual activity

>  <Readout unit>
%

>  <Recorded result>
88.1

$$$$

====

Biological target: ROS1 (human)
Assay: radiometric filter-binding kinase assay, Kinase HotSpot
Settings: compound 0.5 µM; ATP 10 µM

>  <Test smiles>
N#Cc1c(NC(=O)c2cccc3ccccc23)sc2c1CCCC2

>  <Readout unit>
%

>  <residual activity>
96.8

$$$$
>  <Test smiles>
O=C1NC(=O)c2cc(Nc3ccc(F)cc3)c(Nc3ccc(F)cc3)cc21

>  <Readout unit>
%

>  <residual activity>
92

$$$$
>  <Test smiles>
N/C(=N\N=C/c1ccc(-c2cccc([N+](=O)[O-])c2)o1)N[N+](=O)[O-]

>  <Readout unit>
%

>  <residual activity>
97.5

$$$$
>  <Test smiles>
O=C(c1ccccc1)c1ccc(N2CCOCC2)cc1O

>  <Readout unit>
%

>  <residual activity>
96

$$$$
>  <Test smiles>
Cn1cc(/C=C2\C(=O)Nc3ccc(S(N)(=O)=O)cc32)c2ccccc21

>  <Readout unit>
%

>  <residual activity>
82.2

$$$$
>  <Test smiles>
CCCCc1c(-c2ccc(O)cc2)[nH]c2nccnc12

>  <Readout unit>
%

>  <residual activity>
26.3

$$$$
>  <Test smiles>
COc1cc2c(Nc3ccc(Br)cc3F)ncnc2cc1OCC1CCN(C)CC1

>  <Readout unit>
%

>  <residual activity>
76.5

$$$$
>  <Test smiles>
O=c1cc(N2CCOCC2)oc2c(-c3ccccc3)cccc12

>  <Readout unit>
%

>  <residual activity>
98.4

$$$$
>  <Test smiles>
COc1cc2c(cc1OC)-c1[nH]nc(Nc3cccc(F)c3)c1C2

>  <Readout unit>
%

>  <residual activity>
97.5

$$$$
>  <Test smiles>
FC(F)(F)c1ccc(/C=C/c2nc(COc3ccc(CCCCn4ccnn4)cc3)co2)cc1

>  <Readout unit>
%

>  <residual activity>
93.3

$$$$
>  <Test smiles>
N#CCCc1ccc2c(c1)-c1[nH]c3ccc([N+](=O)[O-])cc3c1CC(=O)N2

>  <Readout unit>
%

>  <residual activity>
71

$$$$
>  <Test smiles>
O=c1c(-c2ccc(F)cc2)c(-c2ccncc2)[nH]n1-c1ccc(Cl)cc1

>  <Readout unit>
%

>  <residual activity>
97.6

$$$$
>  <Test smiles>
Cc1cc(Nc2nc(-c3ccccc3)nc3ccccc23)n[nH]1

>  <Readout unit>
%

>  <residual activity>
16.7

$$$$
>  <Test smiles>
c1ccc(-c2cnc(Nc3ccc(OCCN4CCCC4)cc3)s2)cc1

>  <Readout unit>
%

>  <residual activity>
96.9

$$$$
>  <Test smiles>
O=S(=O)(NCCNC/C=C/c1ccc(Br)cc1)c1cccc2cnccc12

>  <Readout unit>
%

>  <residual activity>
99.6

$$$$
>  <Test smiles>
COc1cc2ncnc(Nc3ccc(O)c(Br)c3)c2cc1OC

>  <Readout unit>
%

>  <residual activity>
65.7

$$$$
>  <Test smiles>
CCc1nc(-c2ccc(OC)cc2)[nH]c1-c1ccncc1

>  <Readout unit>
%

>  <residual activity>
91.8

$$$$
>  <Test smiles>
O=C(O)c1ccc2c3c1cccc3c(=O)n1c3ccccc3nc21

>  <Readout unit>
%

>  <residual activity>
95.2

$$$$
>  <Test smiles>
O=c1c2ccccc2[nH]c(=S)n1CCN1CCC(=C(c2ccc(F)cc2)c2ccc(F)cc2)CC1

>  <Readout unit>
%

>  <residual activity>
98.8

$$$$
>  <Test smiles>
O=C1NC(=O)c2c1c1c3ccccc3[nH]c1c1[nH]c3cc(Br)ccc3c21

>  <Readout unit>
%

>  <residual activity>
74.4

$$$$
>  <Test smiles>
N#C/C(=C1/Nc2ccccc2S1)c1ccnc(NCCc2cccnc2)n1

>  <Readout unit>
%

>  <residual activity>
92.7

$$$$
